assay: A549 cell viability effects, profiling panel, calcein-AM fluorescence, 48 h, basal (AID 1162); conditions: higher = more signal; also: test concentration not given here
Reported z-score by item:

{"columns": ["line_notation", "z-score"],
 "data": [
  ["COCCOC(=O)N1C(=O)[C@@]2(c3cc(C#CC4(O)CCCCCC4)ccc31)[C@H](C(=O)N1CCCCCCC1)[C@H]1C(=O)O[C@H](c3ccccc3)[C@H](c3ccccc3)N1[C@@H]2c1ccccc1OCCO", 0.424],
  ["COC(=O)[C@@]1(Cc2ccc(OC)cc2)[C@H]2c3cc(C(=O)N(C)C)n(Cc4c(OC)[nH]cc(C)c4=O)c3C[C@H]2CN1C(=O)c1ccccc1", 0.249],
  ["COc1ccc([Si](C)(C)[C@@H]2[C@@H](CCn3cc([C@H](O)c4ccccc4)nn3)O[C@]3(C(=O)N(Cc4ccc(N5C(=O)c6cccc7cccc5c67)cc4)c4ccccc43)[C@H]2C)cc1", -0.725],
  ["Cc1ccc([C@H]2[C@H](C(=O)O)[C@H](Sc3ccccc3)[C@@H](C(C)C)N2S(=O)(=O)c2ccc(C)cc2)cc1", -0.74],
  ["COCCOC(=O)N1C(=O)[C@@]2(c3cc(C#CCNC(N)=O)ccc31)[C@H](c1ccc(OCCO)cc1)N1[C@H](c3ccccc3)[C@H](c3ccccc3)OC(=O)[C@H]1[C@@H]2C(=O)N1CCc2cc(OC)c(OC)cc2C1", 1.24]
]}

----------
Below is a list of entries, each paired with its recorded composite z-score value.
test system: Human papillomavirus type 1a E7 protein (residues 1-88); assay: HPV1a E7 small-molecule binders, primary screen, biochemical, small-molecule microarray, residues 1-88, 635 nm (AID 1129); conditions: small-molecule microarray binding, fluorescence 635 nm; higher = more signal
endpoint_name: composite z-score

{"columns": ["molecule", "assay_result"],
 "data": [
  ["COc1ccc(CCNC(=O)[C@@]2(Sc3ccc(C)cc3)CC(=O)N(Cc3ccccc3Cl)[C@@H]2c2ccc(CO)cc2I)cc1", 0.349],
  ["C=C(COC)C(=O)CC[C@H](OC(C)=O)c1cccc(OCCO)c1", -0.586],
  ["C=CCC(OC(C)=O)[C@@H]1[C@@H](N(Cc2cc3ccccc3o2)C(=O)c2ccc(C)cc2)c2cc(OCCCO)ccc2N1C(=O)c1ccc2ccccc2c1 (some centres not stated)", -0.409],
  ["O=C(OCCF)C1=CCC(c2cccc(Cl)c2)O1 (configuration not stated)", 0.628],
  ["NCCCCCNC(=O)[C@H]1C[C@H]2C(=O)NCC(=O)N2[C@H]1c1cccc(OCCO)c1", 0.817],
  ["CC(C)C(O)C1C=CC2C(=O)N(c3ccccc3)C(=O)C2N1Nc1ccc(C#N)cc1 (configuration not stated)", 1.14],
  ["CN1C(=O)C2C(C1=O)C1C=C(CCCO)C2C(c2cccs2)N1C (configuration not stated)", -0.612],
  ["COc1cc2c(cc1OC)CN(C(=O)[C@@H]1[C@H]3C(=O)O[C@H](c4ccccc4)[C@H](c4ccccc4)N3[C@H](c3ccccc3OCCO)[C@@]13C(=O)Nc1ccc(C#CCNC(N)=O)cc13)CC2", 0.923],
  ["C=C(COC)C(=O)CC[C@@H](OC(=O)c1cccnc1)c1ccc(CO)o1", 0.0982],
  ["C[C@H]1NC(=O)[C@H](Cc2ccccc2)NC(=O)[C@@]23C(=O)N[C@@H](Cc4ccccc4)C2[C@H](C)[C@@]2(C)O[C@H]2C3/C=C/C/C=C\\CNC1=O (some centres not stated)", -1.27],
  ["N#Cc1ccc(NN2C(C(O)C3CCCCC3)C=CC3C(=O)N(c4ccccc4)C(=O)C32)cc1 (configuration not stated)", 1.27],
  ["CCCN1C(=O)[C@@]2(CCC(=O)OC(C)(C)C)N=C(c3ccc(OCCCO)cc3)O[C@H]2c2ccccc21", 0.999],
  ["O=C/C=C/c1ccc2c(c1)OCO2", 0.128],
  ["COc1ccc([Si](C)(C)[C@H]2[C@H](CC(=O)N(CCO)Cc3ccccc3)O[C@@]3(C(=O)N(Cc4cccc(N5CCC5=O)c4)c4ccccc43)[C@@H]2C)cc1", 1.03],
  ["CC(C)NC(=O)[C@@]1(Cc2ccccc2I)c2ccccc2C(=O)N(Cc2ccccc2)[C@H]1c1ccc(CO)cc1", 1.19],
  ["C=CC[C@@H](OC(=O)Nc1ccc(OC)cc1)c1ccc(O)c2ccccc12", 1.17],
  ["[N-]=[N+]=NCc1ccccc1C[C@]1(C(=O)O)N=C(c2ccc(OCCCO)cc2)O[C@H]1c1ccccc1CN=[N+]=[N-]", 1.03]
]}

// provenance: PubChem BioAssay
